IC50 for assorted compounds
- target system: full-length beta-Catenin (Uniprot ID P35222) (Homo sapiens)
- Construct: 10 nM full-length beta-Catenin (Uniprot ID P35222)
- Sequence (P35222 whole entry): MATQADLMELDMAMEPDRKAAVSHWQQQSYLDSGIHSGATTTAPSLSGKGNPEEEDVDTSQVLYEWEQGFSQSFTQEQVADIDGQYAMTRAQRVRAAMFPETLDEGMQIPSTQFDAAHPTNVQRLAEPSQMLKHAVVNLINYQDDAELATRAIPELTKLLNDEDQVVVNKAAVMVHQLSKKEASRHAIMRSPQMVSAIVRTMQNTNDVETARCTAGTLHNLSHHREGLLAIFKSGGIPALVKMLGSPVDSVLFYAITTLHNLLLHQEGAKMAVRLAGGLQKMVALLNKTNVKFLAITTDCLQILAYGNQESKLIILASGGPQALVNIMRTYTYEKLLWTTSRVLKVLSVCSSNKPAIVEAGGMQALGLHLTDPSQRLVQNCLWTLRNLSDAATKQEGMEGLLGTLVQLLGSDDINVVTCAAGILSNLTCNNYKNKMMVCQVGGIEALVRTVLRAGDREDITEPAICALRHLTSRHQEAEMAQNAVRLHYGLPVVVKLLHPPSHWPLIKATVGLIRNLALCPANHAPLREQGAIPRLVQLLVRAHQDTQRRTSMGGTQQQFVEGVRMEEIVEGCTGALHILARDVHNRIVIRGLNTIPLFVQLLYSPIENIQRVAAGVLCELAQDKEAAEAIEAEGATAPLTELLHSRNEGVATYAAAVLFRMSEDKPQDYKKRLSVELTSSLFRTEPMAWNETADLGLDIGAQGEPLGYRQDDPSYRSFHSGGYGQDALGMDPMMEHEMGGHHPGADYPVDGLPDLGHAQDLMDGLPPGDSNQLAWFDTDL
- protocol: Fluorescence polarization IC50 (beta-catenin / 5FAM-TCF4 10-53 competition)
- Format: binding
- run conditions: fluorescence polarization; read-out: beta-Catenin FP IC50
readout name: IC50

>>> observed_measurement("CC(=O)N1CCC[C@]12CC=CCCCC1(CCCC=CCCCOC(=O)N3CC[C@@](C(=O)N[C@@H](Cc4ccsc4)C(=O)N[C@@H](Cc4csc5ccccc45)C(=O)N[C@@H](CCC(N)=O)C(N)=O)(C3)NC(=O)[C@H](CC(N)=O)NC(=O)[C@H](Cc3ccccc3)NC(=O)[C@H](C)NC(=O)[C@H](C)NC(=O)[C@H](Cc3cccc(-c4nnn[nH]4)c3)NC(=O)[C@H](CC(=O)O)NC1=O)NC(=O)[C@H](CC(C)(C)C)NC(=O)[C@H](CC(=O)O)NC2=O (some centres unmarked)")
"0.011 µM"
>>> observed_measurement("CC(=O)N1CCC[C@]12CC=CCCCC1(CCCC=CCCCCCC[C@@](C)(C(=O)N[C@@H](Cc3ccccc3)C(=O)N[C@@H](Cc3csc4ccccc34)C(=O)N[C@@H](CCC(N)=O)C(N)=O)NC(=O)[C@H](CCCNC(N)=O)NC(=O)[C@H](Cc3ccccc3)NC(=O)[C@H](C)NC(=O)[C@H](C)NC(=O)[C@H](CCC(=O)O)NC(=O)[C@H](CC(=O)O)NC1=O)NC(=O)[C@H](CC(C)C)NC(=O)[C@H](CC(=O)O)NC2=O (some centres unmarked)")
"0.058 µM"
